The reported measurements were obtained from patent US20230286973A1.

# Test system: IL-2-FL/Gaussia Luciferase
# ASSAY REMARKS: Dox Induced IL2-FL-Gluc Assay
# Assay type: cell-based
# MEASUREMENT CONDITIONS: ratio of IL2FLGluc IC50 to PD1ssGluc IC50
PARAMETER: 24 hr Dox Inducible IL2FLGluc 293FRT/TO: IL2/PD1

Find the recorded 24 hr Dox Inducible IL2FLGluc 293FRT/TO: IL2/PD1 belonging to CCc1cccc2nc(/C=C/c3csc(NC(=O)c4cccn4Cc4ccnc(F)c4)n3)cn12 and report it.
>60

Find the recorded 24 hr Dox Inducible IL2FLGluc 293FRT/TO: IL2/PD1 belonging to Cc1cccc2nc(/C=C/c3csc(NC(=O)c4cccn4Cc4ccncc4)n3)cn12 and report it.
>51

Find the recorded 24 hr Dox Inducible IL2FLGluc 293FRT/TO: IL2/PD1 belonging to O=C(Nc1nc(/C=C/C2CCc3ccccc3N2)cs1)c1cccn1Cc1ccncc1 (stereo not shown) and report it.
3.8

Find the recorded 24 hr Dox Inducible IL2FLGluc 293FRT/TO: IL2/PD1 belonging to CC(=O)N1CCC(n2cnc(/C=C/c3csc(NC(=O)c4cccn4Cc4ccnc(F)c4)n3)c2)CC1 and report it.
>4.1

Find the recorded 24 hr Dox Inducible IL2FLGluc 293FRT/TO: IL2/PD1 belonging to O=C(Nc1nc([C@H]2CCCN2c2ccc(OC3CS(=O)(=O)C3)cc2)cs1)c1cccn1Cc1ccnc(F)c1 and report it.
1.4

Find the recorded 24 hr Dox Inducible IL2FLGluc 293FRT/TO: IL2/PD1 belonging to CC(=O)N1CCC(Oc2cc(F)c(N3CCC[C@@H]3c3csc(NC(=O)c4cccn4Cc4ccnc(F)c4)n3)c(F)c2)CC1 and report it.
1.2

Now let's try a different one.
Find the recorded 24 hr Dox Inducible IL2FLGluc 293FRT/TO: IL2/PD1 belonging to O=C1CCCC(/C=C/c2csc(NC(=O)c3cccn3Cc3ccncc3)n2)N1 (stereo not shown) and report it.
1
